B1: HDV Ribozyme (parent)
chain: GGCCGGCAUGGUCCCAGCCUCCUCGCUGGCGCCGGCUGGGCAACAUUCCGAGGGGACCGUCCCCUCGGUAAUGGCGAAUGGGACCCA

- Variants of: B1
- ASSAY METHOD TEXT: self-cleavage, relative activity (ratio to wild type); higher = more cleavage; co-transcriptional
Listed here: items and their measured self-cleavage.
Answer with a bare number; do not write a unit.

GGCCGGCAUGGUCCCAGCCUCCUCGCUGGCGCCGGCUGGGCAACAUUCCGAGGGGACCGUCCACUCGGUAAUGGCAAAUGGGACCCA | 0.875
GGCCGGCAUGGUCCCAGCCUCCUCGCUGGCGCCGGCUGGGCAACAAUCCGACGGGACCGUCCCCUCGGUAAUGGCGAAUGGGACCCA | 0.759
GUCCGGCAUGGUCCCAGCCUCCUCGCUGGCGCCGGCUGGGCAACAUUCCGAGGGGACCGUCCUCUCGGUAAUGGCGAAUGGGACCCA | 0.0545
GGCCGGCAUGGUCCCAGCCUCCUCGCUGGCGCCGGCUGGGCAACAUUCCGAGGGGACCGUCCCCUCGGUAAUGGCGAAUGGGCCCUA | 0.376
GGCCGGCAUGGUCCCAGCCUCCUCGCUGGCGCCGGCUGGGCAACAUUCCGAGGGGACCGUCCCCUCGGGAAUGGCGAAUGCGACCCA | 0.101

Request: Could you please provide reported self-cleavage for `GGCCGGCAUGGUCCCAGCGUCCUCGCUGGCGCCGGCUGGGCAACAUUCCGAGGGGACCGUCCCCUCGGUAAUGGCGAAUGGGUCCCA` ? Thanks!
Result: 0.0504

Request: Could you please provide reported self-cleavage for `GGCCGGCAUGGUCCCAGCCUCCUCGCUGGCGCCGGCUGGGCAACAUUCCGAGGGGACCGUCCCUUCGGUAAUGGCGAAUGGGCCCCA` ? Thanks!
Result: 0.332
